Hello, the source for this data is patent US20030207924A1, in case you need it.

- Tested System: hPPARα chimeric receptor (Homo sapiens, UniProt Q07869)
- Construct: "expression plasmids encoding hPPARα, hPPARβ or mPPARγ chimeric receptors"
- Method: Transient transfection assay in HepG2 cells, Gal4-hPPARα chimeric receptor, luciferase reporter (Test A)
- Assay type: cell-based
- Assay Setup: HepG2 cells, hPPARα chimeric receptor, luciferase reporter, 24 hours; read-out: EC50-α (Hep G2-hAlpha EC50)
Observable: EC50 (µM)

Some molecules with known EC50 results, for comparison:
| Molecule | Recorded Value |
| --- | --- |
| Cc1nc(-c2ccc(C(F)(F)F)cc2)sc1CSc1ccc(C(C)(C)C(=O)O)cc1 [Example 11] | 0.507 |
| COc1cc(OC)c(SCc2sc(-c3ccc(C(F)(F)F)cc3)nc2C)cc1CCC(=O)O [Example 19] | 1.54 |
| Cc1cc(SCc2sc(-c3ccc(C(F)(F)F)cc3)nc2C)cc(C)c1OCC(=O)O [Example 4] | 0.161 |
| COc1cc(SCc2sc(-c3ccc(C(F)(F)F)cc3)nc2C)c(C)cc1OCC(=O)O [Example 6] | 1.39 |

(A) Cc1cc(OCC(=O)O)cc(C)c1SCc1sc(-c2ccc(C(F)(F)F)cc2)nc1C [Example 7]
(B) Cc1cc(SCc2sc(-c3ccc(C(F)(F)F)cc3)nc2C)c(C)cc1OCC(=O)O [Example 1]
(C) COc1cc(OCC(=O)O)c(C)cc1SCc1sc(-c2ccc(C(F)(F)F)cc2)nc1C [Example 5]
(D) COc1cc(OC)c(SCc2sc(-c3ccc(C(F)(F)F)cc3)nc2C)cc1CC(=O)O [Example 21]
Input line: Let's sort these by EC50, smallest first. Go ahead? Answer with the labels in sequence, matching the requested order.
Output line: B, C, D, A

----------
- Tested System: hPPARα chimeric receptor (Homo sapiens)
- Construct: "expression plasmids encoding hPPARα, hPPARβ or mPPARγ chimeric receptors"
- Sequence (Q07869 200-468 limits assumed): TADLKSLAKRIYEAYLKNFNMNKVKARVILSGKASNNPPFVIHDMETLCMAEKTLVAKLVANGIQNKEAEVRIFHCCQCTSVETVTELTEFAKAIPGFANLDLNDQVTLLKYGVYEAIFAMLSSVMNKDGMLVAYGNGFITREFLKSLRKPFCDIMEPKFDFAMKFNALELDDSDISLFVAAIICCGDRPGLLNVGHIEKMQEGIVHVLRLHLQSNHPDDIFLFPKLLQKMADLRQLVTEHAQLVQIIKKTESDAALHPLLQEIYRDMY
- Method: Transient transfection assay in HepG2 cells, Gal4-hPPARα chimeric receptor, luciferase reporter (Test A)
- Type: cell-based
- Assay Setup: HepG2 cells, hPPARα chimeric receptor, luciferase reporter, 24 hours; read-out: EC50-α (Hep G2-hAlpha EC50)
- Text: 1. Test A. Transient Transfections Assay Using the HepG2 Hepatoma Cell Line. HepG2 cells were transiently transfected with an expression plasmids encoding hPPARα, hPPARβ or mPPARγ chimeric receptors and a reporter containing the yeast upstream activating sequence (UAS) upstream of the viral E1B promoter controlling a luciferase reporter gene. In addition, the plasmid pRSVβ-gal was used to control for transfection efficiency. […]
Observable: EC50 (µM)

Some compounds with known EC50 results, for comparison:
| Compound | Tested System | Recorded Value |
| --- | --- | --- |
| Cc1nc(-c2ccc(C(F)(F)F)cc2)sc1CSc1ccc(CC(C(=O)O)n2cccc2)cc1 (centres unmarked) | hPPARα chimeric receptor (Homo sapiens) | 2000 |
| Cc1cc(SCc2sc(-c3ccc(C(F)(F)F)cc3)nc2C)c(F)cc1OCC(=O)O | hPPARα chimeric receptor (Homo sapiens) | 0.17 |
| COc1cc(SCc2sc(-c3ccc(C(F)(F)F)cc3)nc2C)c(OC)cc1CCC(=O)O | hPPARα chimeric receptor (Homo sapiens) | 0.146 |
| Cc1nc(-c2ccc(C(F)(F)F)cc2)sc1CSc1ccc(OCCC(=O)O)cc1 | hPPARα chimeric receptor (Homo sapiens) | 1.23 |
| COc1cc(OCC(=O)O)cc(C)c1SCc1sc(-c2ccc(C(F)(F)F)cc2)nc1C | hPPARα chimeric receptor (Homo sapiens) | 0.84 |

(I) Cc1nc(-c2ccc(C(F)(F)F)cc2)sc1CSc1ccc(C2(C(=O)O)CC2)cc1
(II) Cc1cc(SCc2sc(-c3ccc(C(F)(F)F)cc3)nc2C)c(C(C)C)cc1OCC(=O)O
(III) Cc1nc(-c2ccc(C(F)(F)F)cc2)sc1CSc1ccc([C@@H]2CC2C(=O)O)cc1 (stereo in doubt)
Input line: Let's sort these by EC50, smallest first. Go ahead? Answer with the labels in sequence, matching the requested order.
Output line: III, II, I
(III: 0.135 µM, II: 0.538 µM, I: 1.1 µM)

----------
- Tested System: hPPARβ chimeric receptor (Homo sapiens)
- Construct: "expression plasmids encoding hPPARα, hPPARβ or mPPARγ chimeric receptors"
- Sequence (Q03181 171-441 limits assumed): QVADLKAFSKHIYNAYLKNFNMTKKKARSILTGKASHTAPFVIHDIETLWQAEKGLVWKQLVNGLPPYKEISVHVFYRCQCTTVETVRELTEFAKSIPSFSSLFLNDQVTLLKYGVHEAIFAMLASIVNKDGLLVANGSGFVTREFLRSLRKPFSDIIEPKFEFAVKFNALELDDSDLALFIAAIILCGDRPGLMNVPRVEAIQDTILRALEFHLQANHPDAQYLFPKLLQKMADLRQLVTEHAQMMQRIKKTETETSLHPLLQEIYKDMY
- Method: Transient transfection assay in HepG2 cells, Gal4-hPPARβ chimeric receptor, luciferase reporter (Test A)
pEC50: −log10 of the molar value.
Observable: pEC50

Some compounds with known pEC50 results, for comparison:
| Compound | pEC50 |
| --- | --- |
| Cc1cc(SCc2sc(-c3ccc(C(F)(F)F)cc3)nc2C)c(Cl)cc1OCC(=O)O | 6.98 |
| COc1cc(OC)c(SCc2sc(-c3ccc(C(F)(F)F)cc3)nc2C)cc1CCC(=O)O | 5.95 |
| COc1cc(C(C)(C)C(=O)O)ccc1SCc1sc(-c2ccc(C(F)(F)F)cc2)nc1C | 7.70 |

(a) Cc1cc(OCC(=O)O)cc(C)c1SCc1sc(-c2ccc(C(F)(F)F)cc2)nc1C
(b) COc1cc(SCc2sc(-c3ccc(C(F)(F)F)cc3)nc2C)c(C)cc1OCC(=O)O
Input line: Which of the two gives a bigger number for pEC50: a or b ? Let me know the label of the one you choose.
Output line: a

----------
- Tested System: hPPARβ chimeric receptor (Homo sapiens, UniProt Q03181)
- Construct: "expression plasmids encoding hPPARα, hPPARβ or mPPARγ chimeric receptors"
- Method: Transient transfection assay in HepG2 cells, Gal4-hPPARβ chimeric receptor, luciferase reporter (Test A)
- Type: cell-based
- Assay Setup: HepG2 cells, hPPARβ chimeric receptor, luciferase reporter, 24 hours
Measured EC50-β (Hep G2-hBeta EC50) accompanies every entry in the list below.
Answer format: numeric, mM implied, no suffix.

Some compounds with known EC50-β (Hep G2-hBeta EC50) results, for comparison:
| Compound | Tested System | Result Unit | EC50-β (Hep G2-hBeta EC50) |
| --- | --- | --- | --- |
| CC(=O)Nc1cc(OCC(=O)O)c(C)cc1SCc1sc(-c2ccc(C(F)(F)F)cc2)nc1C [Example 25] | hPPARβ chimeric receptor (Homo sapiens, UniProt Q03181) | mM | 2 |
| COc1cc(CN2CCCC2C(=O)O)ccc1SCc1sc(-c2ccc(C(F)(F)F)cc2)nc1C (stereo not shown) [Example 29] | hPPARβ chimeric receptor (Homo sapiens, UniProt Q03181) | mM | 2 |
| Cc1nc(-c2ccc(C(F)(F)F)cc2)sc1CSc1ccc(C2CCC(CC(=O)O)CC2)cc1 (stereo not shown) [Example 33] | hPPARβ chimeric receptor (Homo sapiens, UniProt Q03181) | mM | 2 |

Now look at this entry.
// Cc1nc(-c2ccc(C(F)(F)F)cc2)sc1CSc1ccc(CC(C(=O)O)n2cccc2)cc1 (stereo not shown) [Example 24] : EC50-β (Hep G2-hBeta EC50) value = 2

----------
- Tested System: hPPARβ chimeric receptor (Homo sapiens)
- Construct: "expression plasmids encoding hPPARα, hPPARβ or mPPARγ chimeric receptors"
- Method: Transient transfection assay in HepG2 cells, Gal4-hPPARβ chimeric receptor, luciferase reporter (Test A)
Observable: EC50 (nM)

Some molecules with known EC50 results, for comparison:
| Molecule | EC50 [nM] |
| --- | --- |
| Cc1cc(SCc2sc(-c3ccc(C(F)(F)F)cc3)nc2C)cc(C)c1OCC(=O)O | 23.4 |
| Cc1cc(SCc2sc(-c3ccc(C(F)(F)F)cc3)nc2C)c(F)cc1OCC(=O)O | 0.07 |
| COc1cc(OCC(=O)O)c(C)cc1SCc1sc(-c2ccc(C(F)(F)F)cc2)nc1C | 2.3 |
| Cc1nc(-c2ccc(C(F)(F)F)cc2)sc1CSc1ccc(C(C)(C)C(=O)O)cc1 | 48.8 |
| Cc1nc(-c2ccc(C(F)(F)F)cc2)sc1CSc1ccc(OCCC(=O)O)cc1 | 1950 |
| COc1cc(OCC(=O)O)cc(C)c1SCc1sc(-c2ccc(C(F)(F)F)cc2)nc1C | 45.3 |

(P) Cc1nc(-c2ccc(C(F)(F)F)cc2)sc1CSc1ccc(C2(C(=O)O)CC2)cc1
(Q) Cc1cc(SCc2sc(-c3ccc(C(F)(F)F)cc3)nc2C)c(C(C)C)cc1OCC(=O)O
(R) Cc1nc(-c2ccc(C(F)(F)F)cc2)sc1CSc1ccc(C2(C(=O)O)CCCC2)cc1
(S) Cc1nc(-c2ccc(C(F)(F)F)cc2)sc1CSc1ccc([C@@H]2CC2C(=O)O)cc1 (stereo in doubt)
Input line: Arrange by EC50, high to low. Answer with the labels in sequence, matching the requested order.
Output line: R, Q, S, P
(R: 6740 nM, Q: 1280 nM, S: 303 nM, P: 47.6 nM)

(P) COc1cc(SCc2sc(-c3ccc(C(F)(F)F)cc3)nc2C)c(OC)cc1CCC(=O)O
(Q) CCc1cc(OCC(=O)O)c(C)cc1SCc1sc(-c2ccc(C(F)(F)F)cc2)nc1C
Input line: Which of the two gives a bigger number for EC50: P or Q ? Let me know the label of the one you choose.
Output line: Q

(P) COc1cc(OC)c(SCc2sc(-c3ccc(C(F)(F)F)cc3)nc2C)cc1CC(=O)O
(Q) Cc1nc(-c2ccc(C(F)(F)F)cc2)sc1CSc1ccc(C(C)(C)CC(=O)O)cc1
Input line: Field: lower EC50 | Options: P / Q Let me know the label of the one you choose.
Output line: Q
(Q: 803 nM, P: 1250 nM)
